Cited source for all entries: patent US20250011379

molecular target: soluble human C3b (UniProt P01024)
Sequence (P01024 whole entry, looked up, tested part not stated): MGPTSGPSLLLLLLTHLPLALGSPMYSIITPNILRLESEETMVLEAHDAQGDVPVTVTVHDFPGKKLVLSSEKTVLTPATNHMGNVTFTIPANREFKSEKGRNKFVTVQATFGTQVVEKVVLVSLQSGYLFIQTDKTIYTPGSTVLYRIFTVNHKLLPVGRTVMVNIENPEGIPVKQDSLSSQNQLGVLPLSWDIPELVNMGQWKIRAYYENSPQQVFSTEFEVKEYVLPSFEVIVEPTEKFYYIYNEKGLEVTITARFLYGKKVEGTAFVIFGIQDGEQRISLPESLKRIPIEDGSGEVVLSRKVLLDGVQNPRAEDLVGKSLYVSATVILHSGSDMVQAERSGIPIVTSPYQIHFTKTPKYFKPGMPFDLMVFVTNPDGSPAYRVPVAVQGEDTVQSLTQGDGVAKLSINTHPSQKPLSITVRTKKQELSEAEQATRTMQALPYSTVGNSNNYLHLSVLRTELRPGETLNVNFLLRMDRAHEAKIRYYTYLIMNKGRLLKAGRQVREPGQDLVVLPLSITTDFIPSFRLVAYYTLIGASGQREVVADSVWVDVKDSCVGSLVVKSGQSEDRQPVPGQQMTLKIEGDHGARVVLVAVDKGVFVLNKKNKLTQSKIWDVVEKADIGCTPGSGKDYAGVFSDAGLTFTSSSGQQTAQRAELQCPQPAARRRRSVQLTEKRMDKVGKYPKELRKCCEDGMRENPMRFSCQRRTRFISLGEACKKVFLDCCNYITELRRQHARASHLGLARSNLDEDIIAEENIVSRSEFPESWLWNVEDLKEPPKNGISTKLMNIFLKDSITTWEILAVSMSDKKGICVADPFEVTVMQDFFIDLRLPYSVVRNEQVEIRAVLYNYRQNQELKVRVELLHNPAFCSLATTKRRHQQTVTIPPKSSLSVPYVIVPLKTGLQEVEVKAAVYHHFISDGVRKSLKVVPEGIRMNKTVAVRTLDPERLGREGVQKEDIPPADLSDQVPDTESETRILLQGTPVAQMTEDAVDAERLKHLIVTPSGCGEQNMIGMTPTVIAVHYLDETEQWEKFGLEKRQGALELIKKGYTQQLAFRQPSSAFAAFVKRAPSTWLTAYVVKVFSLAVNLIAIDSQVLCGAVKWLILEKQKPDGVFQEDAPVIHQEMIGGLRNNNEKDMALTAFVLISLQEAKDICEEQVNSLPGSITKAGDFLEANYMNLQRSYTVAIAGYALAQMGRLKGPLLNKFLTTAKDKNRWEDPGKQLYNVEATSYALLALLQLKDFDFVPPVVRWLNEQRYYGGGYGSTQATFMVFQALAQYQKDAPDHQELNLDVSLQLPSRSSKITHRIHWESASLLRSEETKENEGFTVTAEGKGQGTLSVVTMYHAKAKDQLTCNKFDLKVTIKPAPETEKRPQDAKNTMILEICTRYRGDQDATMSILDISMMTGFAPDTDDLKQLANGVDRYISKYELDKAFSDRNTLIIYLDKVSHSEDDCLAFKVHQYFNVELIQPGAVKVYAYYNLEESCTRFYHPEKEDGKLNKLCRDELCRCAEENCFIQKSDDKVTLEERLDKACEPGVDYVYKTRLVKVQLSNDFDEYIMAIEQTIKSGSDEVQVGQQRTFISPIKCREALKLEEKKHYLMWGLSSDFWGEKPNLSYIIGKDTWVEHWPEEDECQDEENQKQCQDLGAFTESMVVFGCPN
Everything with iC3b ref fold lower than 0.2 fold is no (0); everything else, including exactly 0.2 fold, is yes (1).

1. Const. No. 16: HSA-GGSSGG-hCFI; S499V    no (0)
2. Const. No. 21: HSA-GGSSGG-hCFI; K423R    yes (1)
3. Const. No. 78: HSA-GGSSGG-hCFI; K51D; T59E; R61D    no (0)
4. Const. No. 13: HSA-GGSSGG-hCFI; S499G    yes (1)
5. Const. No. 26: HSA-GGSSGG-hCFI; E401K    yes (1)
6. Const. No. 93: HSA-GGSSGG-hCFI; T377A    yes (1)
7. Const. No. 19: HSA-GGSSGG-hCFI; S499A; I500K    no (0)
8. Const. No. 64: HSA-GGSSGG-hCFI-GGSSGG-hCR1; CCP8; CCP9; CCP10    no (0)
9. Const. No. 4: HSA-GGSSGG-hCFI; L307H    yes (1)
10. Const. No. 44: HSA-GGSSGG-hCFI; Δ(275-CAGFASVAQE-284)(SEQ ID NO: 31) > CEEDRQQNIPKGLARSAQGEAEIETE (SEQ ID NO: 32) + GGSSGG (SEQ ID NO: 6) + CR1(ccp15-17)    no (0)
11. Const. No. 59: HSA-GGSSGG-hCFI; N402D    yes (1)
12. Const. No. 33: HSA-GGSSGG-hCFI; H554F    yes (1)
13. Const. No. 74: HSA-GGSSGGSSGG-Bovine CFI    yes (1)
14. Const. No. 15: HSA-GGSSGG-hCFI; S499K    yes (1)
15. Const. No. 91: HSA-GGSSGG-hCFI; T377A; E457G; N531G    yes (1)
16. Const. No. 7: HSA-GGSSGG-hCFI; P433A    yes (1)
17. Const. No. 20: HSA-GGSSGG-hCFI; T495F; Y496L; S499G; I500K    no (0)
18. Const. No. 31: HSA-GGSSGG-hCFI; N402K    yes (1)
19. Const. No. 35: HSA-GGSSGG-hCFI; R371E    no (0)
20. Const. No. 57: HSA-GGSSGG-hCFI; D395A; E416A    yes (1)
21. Const. No. 38: HSA-GGSSGG-hCFI; N52A    yes (1)
22. Const. No. 14: HSA-GGSSGG-hCFI; S499A    yes (1)
23. Const. No. 52: HSA-GGSSGG-hCFI; D395A    yes (1)
24. Const. No. 9: HSA-GGSSGG-hCFI; P433F    no (0)
25. Const. No. 76: HSA-GGSSGG-hCFI; H383K; D385N; K387S; R388Q; E392Q; Y393T; D395K; K419M; D420H; G421T; N422G; D425E    yes (1)
26. Const. No. 43: HSA-GGSSGG-hCFI; Δ(275-CAGFASVAQE-284)(SEQ ID NO: 31) > CEEDRQQNIPKGLARSAQGEAEIETE (SEQ ID NO: 32)    yes (1)
27. Const. No. 71: HSA-GGSSGGSSGG-Gorilla CFI    no (0)
28. Const. No. 51: HSA-GGSSGG-hCFI; E416R    yes (1)
29. Const. No. 18: HSA-GGSSGG-hCFI; S499G; I500K    no (0)
30. Const. No. 29: HSA-GGSSGG-hCFI; E401F    yes (1)
31. Const. No. 58: HSA-GGSSGG-hCFI; D395A; E416A; D425A    yes (1)
32. Const. No. 22: HSA-GGSSGG-hCFI; R62A    yes (1)
33. Const. No. 5: HSA-GGSSGG-hCFI; L307W    yes (1)
34. Const. No. 41: HSA-GGSSGG-hCFI; L73F    yes (1)
35. Const. No. 72: HSA-GGSSGGSSGG-Cyno CFI    yes (1)
36. Const. No. 47: HSA-GGSSGG-hCFI; R484E    yes (1)
37. Const. No. 77: HSA-GGSSGG-hCFI; H383K; R388Q; E392Q; Y393T; K419M    yes (1)
38. Const. No. 24: HSA-GGSSGG-hCFI; R62L    no (0)
39. Const. No. 12: HSA-GGSSGG-hCFI; Δ(Y496; D497)    no (0)
40. Const. No. 68: HSA-GGSSGG-hCFI-GGSSGG-hCR1; CCP1; CCP2; CCP3-GGSSGG-hCR1; CCP15; CCP16; CCP17    no (0)
41. Const. No. 10: HSA-GGSSGG-hCFI; Δ(Y496)    no (0)
42. Const. No. 1: HSA-GGSSGG-hCFI; F559W    yes (1)

====

molecular target: human C4b (UniProt P0C0L5)
Sequence (P0C0L5 whole entry, looked up): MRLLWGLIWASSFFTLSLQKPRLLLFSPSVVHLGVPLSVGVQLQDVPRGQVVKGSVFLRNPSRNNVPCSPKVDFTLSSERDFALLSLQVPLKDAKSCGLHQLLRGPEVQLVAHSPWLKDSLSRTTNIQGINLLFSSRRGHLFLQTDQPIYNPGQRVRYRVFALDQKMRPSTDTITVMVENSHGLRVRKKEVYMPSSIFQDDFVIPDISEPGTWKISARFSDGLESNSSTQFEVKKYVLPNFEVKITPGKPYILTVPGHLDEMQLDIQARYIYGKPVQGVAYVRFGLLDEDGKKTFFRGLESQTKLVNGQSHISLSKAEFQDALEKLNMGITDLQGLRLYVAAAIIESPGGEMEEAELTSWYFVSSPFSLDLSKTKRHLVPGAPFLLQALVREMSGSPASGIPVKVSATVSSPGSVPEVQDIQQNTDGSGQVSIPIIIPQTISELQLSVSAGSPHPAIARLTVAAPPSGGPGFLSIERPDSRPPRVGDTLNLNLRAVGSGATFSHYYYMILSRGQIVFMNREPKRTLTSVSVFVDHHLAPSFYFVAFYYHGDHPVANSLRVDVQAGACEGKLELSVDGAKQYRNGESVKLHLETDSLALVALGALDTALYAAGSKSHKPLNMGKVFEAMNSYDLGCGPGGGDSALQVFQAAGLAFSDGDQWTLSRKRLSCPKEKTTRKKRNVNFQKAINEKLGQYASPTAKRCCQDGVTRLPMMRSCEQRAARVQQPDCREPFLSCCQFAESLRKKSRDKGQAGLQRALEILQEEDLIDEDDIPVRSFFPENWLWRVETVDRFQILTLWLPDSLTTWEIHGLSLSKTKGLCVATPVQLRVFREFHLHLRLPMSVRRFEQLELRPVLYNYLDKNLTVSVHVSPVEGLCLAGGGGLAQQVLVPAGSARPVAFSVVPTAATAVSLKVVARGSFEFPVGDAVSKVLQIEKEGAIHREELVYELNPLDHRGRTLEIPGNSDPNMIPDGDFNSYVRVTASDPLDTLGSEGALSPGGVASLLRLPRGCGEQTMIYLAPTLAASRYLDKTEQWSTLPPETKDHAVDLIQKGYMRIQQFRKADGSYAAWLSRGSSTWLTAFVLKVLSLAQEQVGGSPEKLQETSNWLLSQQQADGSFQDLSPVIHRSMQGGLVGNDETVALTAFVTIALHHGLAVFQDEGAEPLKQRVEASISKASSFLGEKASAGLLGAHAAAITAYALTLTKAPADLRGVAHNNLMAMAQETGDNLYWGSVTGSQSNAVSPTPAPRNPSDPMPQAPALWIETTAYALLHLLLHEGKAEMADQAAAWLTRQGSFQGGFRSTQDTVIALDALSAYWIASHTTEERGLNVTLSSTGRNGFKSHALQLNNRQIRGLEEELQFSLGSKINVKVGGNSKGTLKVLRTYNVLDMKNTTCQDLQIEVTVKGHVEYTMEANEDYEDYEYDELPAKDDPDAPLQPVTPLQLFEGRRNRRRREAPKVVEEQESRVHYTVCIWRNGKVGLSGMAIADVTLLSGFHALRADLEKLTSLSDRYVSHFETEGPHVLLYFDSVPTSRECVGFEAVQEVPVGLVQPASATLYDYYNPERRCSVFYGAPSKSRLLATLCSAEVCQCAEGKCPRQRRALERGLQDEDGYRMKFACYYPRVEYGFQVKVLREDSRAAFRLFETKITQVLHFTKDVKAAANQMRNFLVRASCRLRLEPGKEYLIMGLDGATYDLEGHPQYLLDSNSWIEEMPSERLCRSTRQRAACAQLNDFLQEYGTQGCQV
The threshold is inclusive: C4c ref fold of exactly 1 fold counts as 1.0; values below receive 0.0.

1. Const. No. 39: HSA-GGSSGG-hCFI; A55P    1.0
2. Const. No. 42: HSA-GGSSGG-hCFI; L73D    1.0
3. Const. No. 76: HSA-GGSSGG-hCFI; H383K; D385N; K387S; R388Q; E392Q; Y393T; D395K; K419M; D420H; G421T; N422G; D425E    1.0
4. Const. No. 34: HSA-GGSSGG-hCFI; H554K    1.0
5. Const. No. 75: HSA-GGSSGGSSGG-Alligator CFI    0.0
6. Const. No. 26: HSA-GGSSGG-hCFI; E401K    1.0
7. Const. No. 52: HSA-GGSSGG-hCFI; D395A    0.0
8. Const. No. 8: HSA-GGSSGG-hCFI; P433G    0.0
9. Const. No. 15: HSA-GGSSGG-hCFI; S499K    1.0
10. Const. No. 92: HSA-GGSSGG-hCFI; N422A    1.0
11. Const. No. 43: HSA-GGSSGG-hCFI; Δ(275-CAGFASVAQE-284)(SEQ ID NO: 31) > CEEDRQQNIPKGLARSAQGEAEIETE (SEQ ID NO: 32)    1.0
12. Const. No. 71: HSA-GGSSGGSSGG-Gorilla CFI    0.0
13. Const. No. 22: HSA-GGSSGG-hCFI; R62A    1.0
14. Const. No. 57: HSA-GGSSGG-hCFI; D395A; E416A    0.0
15. Const. No. 81: HSA-GGSSGG-hCFI; M186E; G187L; Y188S; Q189N; D190G; F191L; D193G    1.0
16. Const. No. 29: HSA-GGSSGG-hCFI; E401F    0.0
17. Const. No. 70: HSA-GGSSGGSSGG-Rat CFI    1.0
18. Const. No. 5: HSA-GGSSGG-hCFI; L307W    1.0
19. Const. No. 59: HSA-GGSSGG-hCFI; N402D    1.0
20. Const. No. 54: HSA-GGSSGG-hCFI; D395K    1.0
21. Const. No. 46: HSA-GGSSGG-hCFI; R484K    0.0

====

biological target: soluble human C3b (UniProt P01024)
iC3b ref fold below 1 fold gives No; iC3b ref fold at or above it gives Yes.

1) Const. No. 48: HSA-GGSSGG-hCFI; Δ(V565) > VG    No
2) Const. No. 80: HSA-GGSSGG-hCFI; Δ(1-KVTYTS-6)(SEQ ID NO: 35) > RSPSASDLP (SEQ ID NO: 36)    No
3) Const. No. 70: HSA-GGSSGGSSGG-Rat CFI    No
4) Const. No. 75: HSA-GGSSGGSSGG-Alligator CFI    No
5) Const. No. 39: HSA-GGSSGG-hCFI; A55P    Yes
6) Const. No. 45: HSA-GGSSGG-hCFI; R484A    No
7) Const. No. 54: HSA-GGSSGG-hCFI; D395K    Yes
8) Const. No. 42: HSA-GGSSGG-hCFI; L73D    No
9) Const. No. 49: HSA-GGSSGG-hCFI; Δ(V565) > VY    No
10) Const. No. 36: HSA-GGSSGG-hCFI; A342R    Yes
11) Const. No. 40: HSA-GGSSGG-hCFI; T59E    No
12) Const. No. 11: HSA-GGSSGG-hCFI; Δ(D497)    No
13) Const. No. 34: HSA-GGSSGG-hCFI; H554K    Yes
14) Const. No. 30: HSA-GGSSGG-hCFI; N402G    Yes
15) Const. No. 6: HSA-GGSSGG-hCFI; L307Y    No
16) Const. No. 27: HSA-GGSSGG-hCFI; E401R    Yes
17) Const. No. 37: HSA-GGSSGG-hCFI; K51R; N52A; A55P; T59M; R61G; F64Y    Yes
18) Const. No. 46: HSA-GGSSGG-hCFI; R484K    Yes
19) Const. No. 53: HSA-GGSSGG-hCFI; D395G    Yes
20) Const. No. 60: HSA-GGSSGG-hCFI; K368D    No
21) Const. No. 25: HSA-GGSSGG-hCFI; R62H    No
22) Const. No. 81: HSA-GGSSGG-hCFI; M186E; G187L; Y188S; Q189N; D190G; F191L; D193G    No
23) Const. No. 92: HSA-GGSSGG-hCFI; N422A    No
24) Const. No. 17: HSA-GGSSGG-hCFI; Y496L    No
25) Const. No. 8: HSA-GGSSGG-hCFI; P433G    No
26) Const. No. 50: HSA-GGSSGG-hCFI; E416K    Yes
27) Const. No. 2: HSA-GGSSGG-hCFI; F559H    Yes
28) Const. No. 32: HSA-GGSSGG-hCFI; N402R    Yes
29) Const. No. 89: HSA-GGSSGG-hCFI; T377G; E457G; N531G-GGSSGG-hCR1; CCP15; CCP16; CCP17; hFH; CCP4-GGGGGGGGGGGG-hFH; CCP19; CCP20    No
30) Const. No. 28: HSA-GGSSGG-hCFI; E401A    Yes
31) Const. No. 56: HSA-GGSSGG-hCFI; D395A; D425A    Yes
32) Const. No. 23: HSA-GGSSGG-hCFI; R62E    No
33) Const. No. 55: HSA-GGSSGG-hCFI; D395R    Yes
34) Const. No. 67: HSA-GGSSGG-hCFI-GGSSGG-hCR1; CCP1; CCP2; CCP3; CCP4    No
35) Const. No. 79: HSA-GGSSGG-hCFI; Q69H; L73F; G79E; T80I; L83S; N84H    Yes
36) Const. No. 73: HSA-GGSSGGSSGG-Chimp CFI    No
